Taken from PubChem BioAssay (Tox21).

# subject_of_test: Nuclear receptor subfamily 1 group I member 3 (Homo sapiens) (UniProt Q14994)
# Sequence (Q14994 whole entry, looked up): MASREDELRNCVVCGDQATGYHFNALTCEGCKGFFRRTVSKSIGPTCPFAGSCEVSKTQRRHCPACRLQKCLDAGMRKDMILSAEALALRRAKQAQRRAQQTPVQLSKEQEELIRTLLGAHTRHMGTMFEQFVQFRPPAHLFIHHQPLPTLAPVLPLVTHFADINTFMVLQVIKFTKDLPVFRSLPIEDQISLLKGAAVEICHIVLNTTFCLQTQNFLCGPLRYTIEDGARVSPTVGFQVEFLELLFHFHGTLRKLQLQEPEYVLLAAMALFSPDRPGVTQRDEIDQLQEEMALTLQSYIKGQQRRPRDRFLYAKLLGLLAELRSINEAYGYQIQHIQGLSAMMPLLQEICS
# procedure_text: qHTS assay to identify small molecule antagonists of the constitutive androstane receptor (CAR) signaling pathway (AID 1224838);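 also: HepG2 cells stably expressing hCAR with CYP2B6 luciferase reporter stimulated by CITCO; nearly all actives have a fitted effect of over 40% in size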
# condition_info: HepG2-CYP2B6-hCAR luciferase, CITCO-stimulated, 24 h; series mostly up to 92.4 µM
Results filed as inconclusive are left out. Activity calls are given as the source filed them. Calls follow the shape of the dose curve; as a rule, active = well fitted inhibition curve with a large enough effect in the repeat runs; inconclusive = weak or mixed curves, or effect the other way; inactive = no such curve, though single readings can be large or run the other way.
property_measured: outcome

For orientation, consider the following solved cases.
Enquiry: Find the recorded outcome belonging to Cc1cc(C)nc(Nc2ccccc2)n1 and report it.
Return: inactive

Enquiry: Find the recorded outcome belonging to O=C(O)c1ccc2[nH]cc(CCCCN3CC=C(c4ccccc4)CC3)c2c1 and report it.
Return: inactive

Enquiry: Find the recorded outcome belonging to O=S(=O)(O)C(F)(F)C(F)(F)C(F)(F)C(F)(F)C(F)(F)C(F)(F)F and report it.
Return: inactive

Enquiry: Find the recorded outcome belonging to CC(C)[N+](=O)[O-] and report it.
Return: inactive

Enquiry: Find the recorded outcome belonging to Nc1ccccc1Cl and report it.
Return: inactive

New cases:
Enquiry: Find the recorded outcome belonging to CCN(CC)c1nc(C)cc(OP(=S)(OC)OC)n1 and report it.
Return: inactive

Enquiry: Find the recorded outcome belonging to N#CCNCC#N and report it.
Return: inactive

Enquiry: Find the recorded outcome belonging to CCC(C)(C)c1cc(-n2nc3ccccc3n2)c(O)c(C(C)(C)CC)c1 and report it.
Return: inactive

Enquiry: Find the recorded outcome belonging to COc1cc2c(cc1OC)[C@@]13CCN4CC5=CCO[C@H]6CC(=O)N2[C@H]1[C@H]6[C@H]5C[C@H]43 and report it.
Return: inactive

Enquiry: Find the recorded outcome belonging to COCC(=O)N(c1c(C)cccc1C)N1CCOC1=O and report it.
Return: inactive

Enquiry: Find the recorded outcome belonging to c1ccc(N2CCNCC2)cc1 and report it.
Return: inactive

Enquiry: Find the recorded outcome belonging to CCN(CC)CCOC(=O)C(C)(c1ccccc1)c1ccccc1 and report it.
Return: inactive

Enquiry: Find the recorded outcome belonging to C=CC1CC=CCC1 (centres undefined) and report it.
Return: inactive

Enquiry: Find the recorded outcome belonging to COc1cc(OC)nc(Oc2cccc(Oc3nc(OC)cc(OC)n3)c2C(=O)O)n1 and report it.
Return: inactive
